Target: His tagged FSP1 (WT) protein (Homo sapiens, UniProt Q9BRQ8)
Sequence (Q9BRQ8 1-373): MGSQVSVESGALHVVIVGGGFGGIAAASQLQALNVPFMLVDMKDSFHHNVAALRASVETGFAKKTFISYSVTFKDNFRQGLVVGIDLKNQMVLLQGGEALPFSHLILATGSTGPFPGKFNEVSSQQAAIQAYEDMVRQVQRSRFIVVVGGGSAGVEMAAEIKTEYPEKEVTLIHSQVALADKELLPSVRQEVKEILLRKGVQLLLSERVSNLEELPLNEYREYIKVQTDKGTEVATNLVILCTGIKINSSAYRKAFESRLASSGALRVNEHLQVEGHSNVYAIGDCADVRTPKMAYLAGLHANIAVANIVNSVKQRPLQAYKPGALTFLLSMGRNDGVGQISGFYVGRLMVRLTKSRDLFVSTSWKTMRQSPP
Endpoint: pIC50
Convention used: pIC50 is expressed as -log10 of the molar concentration.

The molecule Cc1ccc(-c2c(C#N)c(N)n3c(nc4ccccc43)c2C#N)cc1 [iFSP1] on His tagged FSP1 (WT) protein (Homo sapiens, UniProt Q9BRQ8): pIC50 was 5.40
